Target: human ERβ (Homo sapiens, UniProt Q92731)
Construct: Flag (C)
Sequence (Q92731 214-530): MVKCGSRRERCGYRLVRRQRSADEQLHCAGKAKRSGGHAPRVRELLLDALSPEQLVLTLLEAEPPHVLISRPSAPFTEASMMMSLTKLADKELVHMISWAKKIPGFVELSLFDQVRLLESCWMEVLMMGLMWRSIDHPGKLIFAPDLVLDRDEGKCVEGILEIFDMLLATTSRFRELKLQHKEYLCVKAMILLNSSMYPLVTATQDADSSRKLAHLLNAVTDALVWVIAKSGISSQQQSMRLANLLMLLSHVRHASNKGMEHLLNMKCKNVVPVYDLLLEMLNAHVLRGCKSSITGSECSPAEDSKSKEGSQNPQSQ
Assay: ER radioligand binding competition, ERβ
Label scheme for IC50: label 0: < 30 nM; label 1: ≥ 30 nM and < 100 nM; label 2: ≥ 100 nM

| COMPOUND | GROUP |
| --- | --- |
| Oc1ccc(-c2nc3cc(O)cc(C(Br)CBr)c3o2)cc1 (centres unmarked) | label 2 |
| Oc1cc(Br)c2oc(-c3ccc(O)c(F)c3F)nc2c1 | label 0 |
| CC(C)(O)c1cc(O)cc2nc(-c3ccc(O)cc3)oc12 | label 2 |
| Oc1ccc(O)c(-c2nc3ccc(O)cc3o2)c1 | label 2 |
| C=C(F)c1cc(O)cc2nc(-c3ccc(O)c(F)c3)oc12 | label 0 |
| Oc1cc(Br)c2oc(-c3cc(F)c(O)c(F)c3)nc2c1 | label 1 |
| C=C(Br)c1cc(O)cc2nc(-c3ccc(O)cc3)oc12 | label 1 |
| C=C(Br)c1cc(O)cc2nc(-c3ccc(O)cc3F)oc12 | label 0 |
| C=C(C)c1cc(O)cc2nc(-c3ccc(O)cc3)oc12 | label 2 |
| CCc1cc(O)ccc1-c1nc2cc(O)cc(CC)c2o1 | label 1 |
| Oc1ccc(O)c(-c2nc3cc(O)ccc3o2)c1 | label 2 |
| C=C(Br)c1cc(O)cc2nc(-c3ccc(O)c(F)c3F)oc12 | label 1 |
| COc1c(Br)c(O)c(Br)c2nc(-c3ccc(O)cc3)oc12 | label 1 |
| COc1cc(O)c(Br)c2nc(-c3ccc(O)cc3)oc12 | label 1 |

---

Target: human ERα (Homo sapiens, UniProt P03372)
Construct: These templates contained amino acids M250-V595 of human ERα; His (N); Flag (C); made in house; host or cells: E. coli BL21 (DE3), clarified lysate
Sequence (P03372 250-595): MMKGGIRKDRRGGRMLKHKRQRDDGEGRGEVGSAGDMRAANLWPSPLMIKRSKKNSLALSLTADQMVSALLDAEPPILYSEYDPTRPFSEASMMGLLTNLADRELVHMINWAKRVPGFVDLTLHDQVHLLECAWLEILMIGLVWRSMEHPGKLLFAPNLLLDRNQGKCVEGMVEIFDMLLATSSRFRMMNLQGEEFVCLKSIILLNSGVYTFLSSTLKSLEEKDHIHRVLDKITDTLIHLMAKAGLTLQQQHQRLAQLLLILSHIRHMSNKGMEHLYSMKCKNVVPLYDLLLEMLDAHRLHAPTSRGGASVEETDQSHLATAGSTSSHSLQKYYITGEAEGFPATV
Test: ER radioligand binding competition, ERα
Conditions: competition with [3H]-17β-estradiol; read-out: ER-α IC50
Under this convention, True denotes IC50 strictly below 600 nM and False denotes IC50 at or above 600 nM.

| MOLECULE | GROUP |
| --- | --- |
| Oc1cc(Br)c2oc(-c3cc(F)c(O)c(F)c3)nc2c1 | False |
| C=C(Br)c1cc(O)cc2nc(-c3ccc(O)cc3F)oc12 | True |
| C=C(C)c1cc(O)cc2nc(-c3ccc(O)cc3)oc12 | False |
| Oc1ccc(-c2nc3cc(O)cc(C(Br)CBr)c3o2)cc1 (centres unmarked) | False |
| Oc1ccc(O)c(-c2nc3cc(O)ccc3o2)c1 | False |
| Oc1ccc(O)c(-c2nc3ccc(O)cc3o2)c1 | False |
| C=C(Br)c1cc(O)cc2nc(-c3ccc(O)c(F)c3F)oc12 | True |
| COc1c(Br)c(O)c(Br)c2nc(-c3ccc(O)cc3)oc12 | True |
| Oc1cc(Br)c2oc(-c3ccc(O)c(F)c3F)nc2c1 | True |
| CCc1cc(O)ccc1-c1nc2cc(O)cc(CC)c2o1 | False |
| CC(C)(O)c1cc(O)cc2nc(-c3ccc(O)cc3)oc12 | False |
| C=C(F)c1cc(O)cc2nc(-c3ccc(O)c(F)c3)oc12 | True |
| C=C(Br)c1cc(O)cc2nc(-c3ccc(O)cc3)oc12 | True |
| COc1cc(O)c(Br)c2nc(-c3ccc(O)cc3)oc12 | False |
